- Tested on: Malme-3M
- testDescription: NCI tumour cell line growth inhibition, 48 h
Activity calls are given as the source filed them. Cut-off read from the data, not from the text of the source: active = GI50 up to about 1.1 µM and inactive = higher.
propertyLabel: GI50

{"columns": ["compound", "propertyLabel", "recordedValue"],
 "data": [
  ["CCOC(=O)C(C(N)=O)C1=Nc2cc([N+](=O)[O-])ccc2N/C1=C\\C(=O)c1ccccc1 (stereo unspecified)", "GI50", "19.9 µM (inactive)"],
  ["COc1ccc2nc(C(=O)c3ccccc3)c(C)cc2c1", "GI50", "2.94 µM (inactive)"],
  ["N#Cc1ccccc1C#C/C=C\\C#Cc1ccccn1", "GI50", "19.3 µM (inactive)"],
  ["O=C1c2ccccc2CC12Cc1ccc3c(c1C2=O)CCCC3 (stereo unspecified)", "GI50", "82.2 µM (inactive)"],
  ["Cc1ccc2ccc(-c3ccccc3)c3c2c1C(=O)c1ccccc1C3=O", "GI50", "> 100 µM (inactive)"],
  ["Cc1ccc(SC2C(C)(C)N(C(C)C)P2(=O)N(C(C)C)C(C)C)cc1 (stereo unspecified)", "GI50", "> 32.3 µM (inactive)"]
]}

###

- Test system: HOP-62
- testDescription: NCI tumour cell line growth inhibition, 48 h
Activity calls are given as the source filed them. Cut-off read from the data, not from the text of the source: active = GI50 up to about 1.1 µM and inactive = higher.
Outcomes: 1.0 = active, 0.0 = inactive

{"columns": ["compound", "cat"],
 "data": [
  ["CC(=O)Nc1ccc(/C=c2\\sc3nnc(CCC(=O)Nc4ccccc4Cl)n3c2=O)cc1", 0.0],
  ["Br[C@@H]1[C@H]2c3nc4ccccc4nc3[C@@H]1C[C@H]2Br", 0.0],
  ["CC1C(c2ccccc2)=CCON1c1ccccc1 (stereo unspecified)", 0.0],
  ["Cc1ccc(S(N)(=O)=O)cc1 [P-TOLUENESULFONAMIDE]", 0.0],
  ["Cc1cc(S(=O)(=O)NC2=Nc3ccccc3C(c3ccccc3)N2)c(S)cc1Cl (stereo unspecified)", 0.0],
  ["Cc1ccc2ccc(-c3ccccc3)c3c2c1C(=O)c1ccccc1C3=O", 0.0],
  ["C/C(=N\\NC(=S)N1CCN(c2ccccn2)CC1)c1ncccn1", 1.0],
  ["N/N=C1/C2CN3CCN(C2)CC1(c1ccc([N+](=O)[O-])cc1)C3", 0.0],
  ["CN(C)Cc1cc(/N=N/c2ccc(Cl)cc2)ccc1O", 0.0],
  ["CCCCCCCCC/C=C1/CC(CO)(COC(=O)c2ccccc2)OC1=O (stereo unspecified)", 0.0],
  ["CC(=O)NC(Cc1ccsc1)C(=O)O (stereo unspecified)", 0.0]
]}

###

Entries and their GI50 values follow.
- Tested on: SK-MEL-5
- testDescription: NCI tumour cell line growth inhibition, 48 h
Calls of active or inactive are those of the source. Rule as the data show it: active = GI50 up to about 1.1 µM and inactive = higher.

{"columns": ["compound", "GI50"],
 "data": [
  ["CC1(C)CCC[C@@]2(C)C1CC[C@@]1(CO1)[C@@H]2/C=C\\C(C=O)CC=O (stereo not given in full)", "> 100 µM (inactive)"],
  ["O=c1/c(=C/c2c(O)ccc3ccccc23)sc2nc3ccccc3n12", "> 100 µM (inactive)"],
  ["CC(=O)ON(C(C)=O)C1C(COC(c2ccccc2)(c2ccccc2)c2ccccc2)OC2OC3(CCCC3)OC21 (stereo not given)", "6.3 µM (inactive)"],
  ["Cc1cc(O)nc2cc3oc4ccccc4c3cc12", "7.52 µM (inactive)"],
  ["CC(=O)O[C@H]1CCC2[C@@H]3CCC4=C(O)c5nocc5C[C@]4(C)C3CC[C@@]21C (stereo not given in full)", "> 100 µM (inactive)"]
]}
